Values compiled from patent US20250268903A1.

- system name: human RXFP1 (Homo sapiens, UniProt Q9HBX9)
- Sequence (Q9HBX9 whole entry): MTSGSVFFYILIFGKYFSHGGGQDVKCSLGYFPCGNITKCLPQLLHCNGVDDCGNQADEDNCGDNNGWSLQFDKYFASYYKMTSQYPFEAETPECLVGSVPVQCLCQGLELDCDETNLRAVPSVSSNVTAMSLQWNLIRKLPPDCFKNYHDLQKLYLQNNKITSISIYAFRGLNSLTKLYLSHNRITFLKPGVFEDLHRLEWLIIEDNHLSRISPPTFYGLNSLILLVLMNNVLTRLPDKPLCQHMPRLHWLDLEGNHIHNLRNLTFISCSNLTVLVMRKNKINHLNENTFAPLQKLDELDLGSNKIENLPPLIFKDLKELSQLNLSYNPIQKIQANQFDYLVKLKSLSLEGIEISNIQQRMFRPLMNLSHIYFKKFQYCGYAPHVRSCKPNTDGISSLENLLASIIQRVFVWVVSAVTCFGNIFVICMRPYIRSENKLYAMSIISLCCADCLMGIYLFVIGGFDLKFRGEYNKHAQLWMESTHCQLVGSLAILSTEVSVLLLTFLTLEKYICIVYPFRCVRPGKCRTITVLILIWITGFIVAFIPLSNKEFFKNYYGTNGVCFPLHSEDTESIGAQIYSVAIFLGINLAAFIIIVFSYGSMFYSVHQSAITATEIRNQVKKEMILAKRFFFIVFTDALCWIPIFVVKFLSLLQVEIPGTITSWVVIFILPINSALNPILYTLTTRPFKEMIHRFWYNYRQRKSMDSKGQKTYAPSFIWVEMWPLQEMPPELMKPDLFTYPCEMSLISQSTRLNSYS
- experimental protocol: hRXFP1 HEK293 cAMP assay (HTRF)
- stated conditions: HEK293 cells stably expressing human RXFP1, 30 min at room temperature
Exam item: assign True to entries whose EC50 is below 90 nM and False to entries at or above 90 nM. Note that a value of exactly 90 nM receives False.

[[record]]
compound = "COc1ccc(CCC(C)(C)O)cc1C(=O)NC1C2CCC(/C2=C/C2CCCOC2)[C@@H]1C(=O)Nc1ccc(F)c(C(F)(F)F)c1 (single isomer, unassigned) [Example 172]"
group_label = "True"

[[record]]
compound = "COc1ccc(C2CC(CO)C2)cc1C(=O)N[C@H]1[C@@H](C(=O)Nc2ccc(F)c(C(F)(F)F)c2)[C@H]2CC[C@@H]1/C2=C\\C1CC1 (some centres unmarked) [Example 333]"
group_label = "True"

[[record]]
compound = "COc1ccc(S(=O)(=O)N2CC3CCC(C2)O3)cc1C(=O)N[C@H]1[C@@H](C(=O)Nc2ccc(F)c(C(F)(F)F)c2)[C@H]2CC[C@@H]1/C2=C\\C(F)(F)F"
group_label = "False"

[[record]]
compound = "COc1ccc(C2CCCC(OC(=O)Nc3ccccc3)C2)cc1C(=O)N[C@@H]1C2CCC(/C2=C/C(F)(F)F)[C@@H]1C(=O)Nc1ccc(F)c(C(F)(F)F)c1 (single isomer, unassigned) [Example 42]"
group_label = "False"

[[record]]
compound = "COc1ccc(/C=C/C(=O)N[C@H]2C[C@@H](O)C2)cc1C(=O)N[C@@H]1C2CCC(/C2=C/C(F)(F)F)[C@@H]1C(=O)Nc1ccc(F)c(C(F)(F)F)c1 (some centres unmarked)"
group_label = "False"

[[record]]
compound = "CCCc1ccc(OCCO)c(C(=O)N[C@@H]2C3CCC(/C3=C/C(F)(F)F)[C@@H]2C(=O)Nc2ccc(F)c(C(F)(F)F)c2)c1 (some centres unmarked)"
group_label = "False"

[[record]]
compound = "COc1ccc(C2CC3(CC(N)C3)C2)cc1C(=O)NC1C2CCC(/C2=C/C(F)(F)F)[C@@H]1C(=O)Nc1ccc(F)c(C(F)(F)F)c1 (some centres unmarked)"
group_label = "False"

[[record]]
compound = "COc1ccc(S(=O)(=O)N2CC3CCC(C2)O3)cc1C(=O)N[C@H]1[C@@H](C(=O)Nc2ccc(F)c(C(F)(F)F)c2)[C@H]2CC[C@@H]1/C2=C\\C1CC1"
group_label = "True"

[[record]]
compound = "COc1ccc(CCC(C)(C)O)cc1C(=O)N[C@@H]1C2CCC(/C2=C/C2CCC2)[C@@H]1C(=O)Nc1ccc(F)c(C(F)(F)F)c1 (some centres unmarked)"
group_label = "True"

[[record]]
compound = "COc1cc(CN2C(=O)CNC2=O)ccc1C(=O)N[C@@H]1C2CCC(/C2=C/C(F)(F)F)[C@@H]1C(=O)Nc1ccc(F)c(C(F)(F)F)c1 (some centres unmarked)"
group_label = "False"

